# reported koff; entries follow
# measured-on: T1, human common cytokine receptor γ-chain (IL-2Rγ) (human, UniProt P31785 23-262, limits assumed)
# T1 construct: Recombinant human IL-2Rγ protein, coated (ELISA) or amine-coupled to a CM5 chip (SPR); also called hu IL-2R; CD132
# T1 sequence: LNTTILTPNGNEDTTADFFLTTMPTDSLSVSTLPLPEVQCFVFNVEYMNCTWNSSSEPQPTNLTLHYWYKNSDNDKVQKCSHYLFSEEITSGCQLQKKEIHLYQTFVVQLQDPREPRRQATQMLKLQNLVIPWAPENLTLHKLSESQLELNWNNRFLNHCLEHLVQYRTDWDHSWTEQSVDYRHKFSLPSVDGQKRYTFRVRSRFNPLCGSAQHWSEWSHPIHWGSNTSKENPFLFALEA
# protocol-text: P.E. off-rate SPR
Record the value in s⁻¹, omitting the unit from your answer.

FJ1427_P035MP07F03 (VHH, tested as periplasmic extract; also called Clone nr) VHH: QVQLVESGGGLVQTGGSLRLSCAASGRTLSRYAMGWFRQAPGKEREFVTANSWGGDTYYADSVQGRFTFSRDNAKNTVYLQMNSLQPEDTAVYYCAAAPTSFATTAYSSSNSYAYWGQGTQVTVSS : 0.00321

What does the record list as koff for FJ1427_P035MP07G10 (VHH, tested as periplasmic extract; also called Clone nr; 655) VHH: QVQLVESGGGLVQAGGSLRLSCAASGRTLSRYAMGWFRQAPGKEREYVAIDSWGGDTFYADSVEGRFTFSRDNAKNEVYLQMNSLQPEDTAVYYCAGAPTSFATTAYSSSNSYRYWGQGTQVTVSS ?
0.00122
